test: Pharmacokinetic analyses in mice (PO suspension, IV, SC); format: in vivo, mouse; settings: female, CD-1, mouse, in vivo, sc, 25 mg/kg, SC (25 mg/kg), 8 hrs, mean of 3 animals; read-out: MBX 4132 Concentrations in Mouse Plasma, Mean

CPD SMILES: O=C(Nc1nnc(-c2ccc(F)cc2)o1)N1CCc2ccccc2C1
concentration at 8 h [ng/mL]: 4040

====

assay: Pharmacokinetic analyses in mice (PO suspension, IV, SC); assay type: in vivo, mouse; details: mouse, in vivo, iv, 10 mg/kg, IV (10 mg/kg), 1 hrs, mean of 3 animals; read-out: MBX 4132 Concentrations in Mouse Plasma, Mean

CPD SMILES: O=C(Nc1nnc(-c2ccc(F)cc2)o1)N1CCc2ccccc2C1
QUANTITY UNIT: ng/mL
concentration at 1 h: 21400

Cited source: paper PMC7979765
